Here's what we have: IC50 numbers for human factor XIa (Homo sapiens).
READOUT TYPE: IC50 (nM)

COMPOUND	READOUT TYPE	OBSERVED RESULT
Nc1c(C(=O)N2CCC[C@@]3(C2)OC(=O)Nc2ccc(Cl)c(F)c23)nnn1Cc1ccccc1	IC50	328
Nc1c(C(=O)N2CCC[C@@]3(C2)OC(=O)Nc2ccc(Cl)c(F)c23)cnn1CC(F)F	IC50	882
CCC(c1ccccc1)n1ncc(C(=O)N2CCC[C@@]3(C2)OC(=O)Nc2ccc(Cl)c(F)c23)c1N (single isomer, unassigned)	IC50	30

[P] Nc1c(C(=O)N2CCC[C@@]3(C2)OC(=O)Nc2ccc(Cl)c(F)c23)cnn1C(C(F)(F)F)C1(F)CC1 (single isomer, unassigned)
[Q] Nc1c(C(=O)N2CCC[C@@]3(C2)OC(=O)Nc2ccc(Cl)c(F)c23)cnn1Cc1ccccc1
Ask: Return label of the item with the larger IC50. Candidates: P , Q . Pick one; state its label.
Result: P
(P: 103 nM, Q: 68 nM)

[I] Nc1c(C(=O)N2CCC[C@@]3(C2)OC(=O)Nc2ccc(Cl)c(F)c23)cnn1C(c1ccccc1)C(F)(F)F (single isomer, unassigned)
[II] COc1ccccc1-n1ncc(C(=O)N2CCC[C@@]3(C2)OC(=O)Nc2ccc(Cl)c(F)c23)c1N
Ask: Return label of the item with the larger IC50. Candidates: I , II . Pick one; state its label.
Result: II
(II: 377 nM, I: 74 nM)

[1] Nc1c(C(=O)N2CCC[C@@]3(C2)OC(=O)Nc2ccc(Cl)c(F)c23)cnn1CCOc1ccc(Cl)cc1
[2] CC(C1CC1)(n1ncc(C(=O)N2CCC[C@@]3(C2)OC(=O)Nc2ccc(Cl)c(F)c23)c1N)C(F)(F)F (single isomer, unassigned)
Ask: Return label of the item with the larger IC50. Candidates: 1 , 2 . Pick one; state its label.
Result: 1

[A] CCC(n1ncc(C(=O)N2CC(C)(C)C[C@@]3(C2)OC(=O)Nc2ccc(Cl)c(F)c23)c1N)C(F)(F)F (single isomer, unassigned) [Example 130]
[B] Nc1c(C(=O)N2CCC[C@@]3(C2)OC(=O)Nc2ccc(Cl)c(F)c23)cnn1CCOCC(F)(F)F
Ask: Return label of the item with the larger IC50. Candidates: A , B . Pick one; state its label.
Result: B

###

Biological target: Human plasma kallikrein (Homo sapiens)
Construct: yields a heavy chain (371 amino acids) and a light chain (248 amino acids); The active site of plasma kallikrein is contained in the light chain
Sequence (P03952 391-638 limits assumed): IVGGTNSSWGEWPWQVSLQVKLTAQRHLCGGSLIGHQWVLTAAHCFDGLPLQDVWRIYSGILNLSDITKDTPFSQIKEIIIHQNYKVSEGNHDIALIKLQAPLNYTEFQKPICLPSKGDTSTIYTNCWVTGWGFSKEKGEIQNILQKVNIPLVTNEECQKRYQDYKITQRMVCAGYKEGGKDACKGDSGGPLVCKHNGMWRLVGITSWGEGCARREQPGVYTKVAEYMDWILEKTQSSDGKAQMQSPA
Sequence (P03952 20-390 partner limits assumed): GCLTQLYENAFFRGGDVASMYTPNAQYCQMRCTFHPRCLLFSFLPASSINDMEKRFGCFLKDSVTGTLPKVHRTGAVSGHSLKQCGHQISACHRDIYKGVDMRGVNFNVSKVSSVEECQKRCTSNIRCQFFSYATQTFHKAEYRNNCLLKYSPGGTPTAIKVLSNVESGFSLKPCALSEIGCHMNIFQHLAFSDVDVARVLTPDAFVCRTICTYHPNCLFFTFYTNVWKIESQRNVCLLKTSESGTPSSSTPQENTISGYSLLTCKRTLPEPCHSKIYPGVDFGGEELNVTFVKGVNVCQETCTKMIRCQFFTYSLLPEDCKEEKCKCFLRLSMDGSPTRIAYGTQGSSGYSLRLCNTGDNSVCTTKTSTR
Experiment: Plasma Kallikrein Assay
Conditions: purified Human plasma kallikrein 0.5 nM, substrate Acetyl-K-P-R-AFC, HEPES pH 7.4; read-out: PKal IC50
READOUT TYPE: IC50 (nM)

[A] COc1ccc(Cl)cc1-n1ncc(C(=O)N2CCC[C@@]3(C2)OC(=O)Nc2ccc(Cl)c(F)c23)c1N
[B] CC1(C)CN(C(=O)c2cnn(CC(F)(F)F)c2N)C[C@]2(C1)OC(=O)Nc1ccc(Cl)c(F)c12
[C] CC1(C)CN(C(=O)c2cnn(Cc3ccccc3)c2N)C[C@]2(C1)OC(=O)Nc1ccc(Cl)c(F)c12
[D] Nc1c(C(=O)N2CCC[C@@]3(C2)OC(=O)Nc2ccc(Cl)c(F)c23)cnn1C(C(F)(F)F)C1(F)CC1 (single isomer, unassigned) [Example 115]
[E] CC(C)c1ccccc1-n1ncc(C(=O)N2CCC[C@@]3(C2)OC(=O)Nc2ccc(Cl)c(F)c23)c1N
Ask: # rank_down: sort by IC50, max first Field: ranking. Enter the labels in the order requested.
Result: A, E, B, C, D
(A: 11.8 nM, E: 5.5 nM, B: 2.7 nM, C: 1.3 nM, D: 0.6 nM)

[P] Nc1c(C(=O)N2CCC[C@@]3(C2)OC(=O)Nc2ccc(Cl)c(F)c23)cnn1C1(C(F)(F)F)CCOCC1
[Q] Nc1c(C(=O)N2CCC[C@@]3(C2)OC(=O)Nc2ccc(Cl)c(F)c23)cnn1Cc1ccncc1
Ask: Return label of the item with the larger IC50. Candidates: P , Q . Pick one; state its label.
Result: P
